Target: MDMX (Homo sapiens, UniProt O15151)
Sequence (O15151 1-125): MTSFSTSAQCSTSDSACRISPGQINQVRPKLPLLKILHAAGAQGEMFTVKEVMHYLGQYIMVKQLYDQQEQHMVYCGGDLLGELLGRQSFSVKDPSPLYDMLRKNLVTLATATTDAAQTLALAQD
Experiment: Competitive fluorescence polarization assay for MDMX
Assay type: binding
Settings: competitive FP assay, read-out: IC50 (MDMX)
Where a SMILES comes first, the peptide text is derived from it. Bridges are numbered along the chain shown (N, C = ends). [ ]: non-standard residue; d: D form. R8 = C=CCCCCCC[C@@](C)(N)C(=O)O; Cba = N[C@@H](CC1CCC1)C(=O)O; S5 = C=CCCC[C@](C)(N)C(=O)O
Recorded IC50 by entry

CC[C@H](C)[C@H](NC(=O)[C@H](C)NC(=O)[C@H](C)NC(=O)[C@]1(C)CCCC=CCCCCCC[C@@](C)(NC(=O)[C@H](Cc2ccccc2)NC(=O)[C@@H](NC(=O)[C@H](CC(C)C)NC(C)=O)[C@@H](C)O)C(=O)N[C@@H](C)C(=O)N[C@@H](Cc2ccc(O)cc2)C(=O)N[C@@H](Cc2c[nH]c3ccccc23)C(=O)N[C@@H](C)C(=O)N[C@@H](CCC(N)=O)C(=O)N[C@@H](CC2CCC2)C(=O)N1)C(=O)N[C@H](C)C(N)=O [compound 264] (Ac-LTF[R8]AYWAQ[Cba][S5]AAI[dA]-NH2; staple 4-11) :: 10 to 100 nM

Proceeding to the next molecule to report its IC50.
Incoming: Give a short answer stating reported IC50 for CSCC[C@H](NC(=O)[C@H](C)NC(=O)[C@H](CO)NC(=O)[C@]1(C)CCCC=CCCCCCC[C@@](C)(NC(=O)[C@H](Cc2ccccc2)NC(=O)[C@@H](NC(=O)[C@H](CC(C)C)NC(C)=O)[C@@H](C)O)C(=O)N[C@@H](C)C(=O)N[C@@H](Cc2ccc(O)cc2)C(=O)N[C@@H](Cc2c[nH]c3ccccc23)C(=O)N[C@@H](C)C(=O)N[C@@H](CCC(N)=O)C(=O)N[C@@H](CC(C)C)C(=O)N1)C(N)=O [compound 5] (Ac-LTF[R8]AYWAQL[S5]SAM-NH2; staple 4-11) .
Outgoing: 100 to 1000 nM
